Target: T1, human IL-5 with his-tag (rhIL-5-his) (human, UniProt P05113 20-134)
T1 construct: It was expressed in HEK293 and purified from the supernatant; also called HuIL-5; recombinant human IL-5
T1 sequence: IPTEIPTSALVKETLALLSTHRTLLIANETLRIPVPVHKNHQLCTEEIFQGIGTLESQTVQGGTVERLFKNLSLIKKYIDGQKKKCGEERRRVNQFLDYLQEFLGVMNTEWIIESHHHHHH
Test: Biacore T200, antibody captured on protein A chip, antigen in flow, 1:1 Langmuir
Assay Readout: pKd
Reminder that pKd is minus the log10 of a molar concentration.

Ask | What value of measured pKd is listed for mAb1705 (antibody, V domains shown, Murine hybridoma antibody) VH: EVQLVESGGGLVQPGRSLKLSCTASGFTFSHYYMAWVRQAPKKGLEWVTSISYEGDITYYGDSVKGRFTISRDNAKSTLYLQMNSLRSEDTATYYCASQTLRESFDYWGQGVMVTVSS VL: DIQMTQSPSSMSVSLGDRVTITCRASQDIANYLSWYQQKIARSPKLVIYGTSNLEVGVPSRFSGSRSGSDYSLTINTLESEDTGIYFCLQDKEFPRTFGGGTRLELK ?
Reply | 10.14

Ask | Value lookup for pKd; key = mAb1780 (antibody, V domains shown, Murine hybridoma antibody) VH: QVKLLQSGAALVKPGDSVKMSCKASDYTFTEYLIHWVKQSQGRSLEWIGYINPYSGGTVYNEKFKSKATLTVDKFSSTAYMEFRRLTFEDSAIYYCARDGGYSDPLDYWGQGVMVTVSS VL: DTVLTQSPALAVSPGERVSISCRASEGLTSYMHWYQQKPGQQPKLLIYKASNLASGVPARFSGSGSGTDFTLTIDPVEADDAATYFCQQNWNDPWTFGGGTKLELK
Reply | 10.05

Ask | Tell me the measured pKd of mAb1773 (antibody, V domains shown, Murine hybridoma antibody) VH: EVQLQQSLAELVRPGASVTLSCTASGFNIKNTYIHWVKQRPEQGLEWIGRIDPANGDTKHGPKFQGKATITADTSSNTAYLQFSSLTSEDTAIYYCFRYGIYPDHWGQGTPLTVSS VL: QIVLTQSPALMSASPGEKVTMTCSASSSVNYIYWYQQKPRSSPKPWIYLTATLASGVPARFSGSGSGTSFSLTISRMEAEDAATYYCQQWNSYPYTFGGGTKLEIE , please.
Reply | 9.89

---
Ask | Fill blank: measured pKd of the binder mAb1706 (antibody, V domains shown, Murine hybridoma antibody) VH: EVQLVESGGGLVQPGRSLKLSCAASGFTFSHYYMAWVRQAPKKGLEWVTSINYEGNSAYYGDSVKGRFTISRDNAKSTLYLQMDSLRSEDTATYYCATETLRESLDYWGQGVMVTVSS VL: DIQMTQSPSSMSVSLGDRVTITCRASQDIGNYLSWYQQKLGKSPKLMIHSASNLEVGVPSRFSGSRSGSDYSLTINTLESEDPGIYFCLQHKQFPRTFGGGTKLELK is ____.
Reply | 10.42

Ask | Which pKd reading was recorded for the binder mAb1779 (antibody, V domains shown, Murine hybridoma antibody) VH: QVKLLQSGAALVKPGDSVKMSCKASGYTFTDYIIHWVKQSHGKSLEWIGYFNPNSGGSNYNENFKRKATLTADKSSSTAYLEFSRVTSEDSAIYYCGRRIAWDHWYFDFWGPGTMVTVSS VL: DIQMTQSPASLSASLGETVSIECLASEGISNDVAWYQQKSGRSPQLLVYAASRLQDGVPSRFSGSGSGTRYFFKISGMQPEDEADYFCQQGYKTPLTFGSGTKLEIK ?
Reply | 9.34

Values were extracted from patent US20220144937A1.
